Biological target: Sigma non-opioid intracellular receptor 1 (Cavia porcellus)
Sequence (Q60492 whole entry): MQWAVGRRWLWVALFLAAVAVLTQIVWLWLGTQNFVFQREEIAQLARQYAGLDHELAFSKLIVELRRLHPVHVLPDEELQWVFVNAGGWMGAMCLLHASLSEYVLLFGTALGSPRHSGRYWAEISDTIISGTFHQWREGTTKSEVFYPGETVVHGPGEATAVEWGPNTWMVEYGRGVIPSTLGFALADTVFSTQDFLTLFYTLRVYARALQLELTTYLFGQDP
Assay: Displacement of [3H](+)-pentazocine from sigma 1 receptor in guinea pig brain membranes measured after 120 mins by scintillation counting method
Format: cell membranes, Membrane
Can you tell me log10(Ki) for the items I'm about to list?
Recorded Ki (log10, nM)

Example entries and their recorded answers appear below.
- STRUCTURE STRING: "COc1ccc(OC[C@@H](C)N2CCC(C)CC2)cc1"
  log10(Ki): 0.06
- STRUCTURE STRING: "COc1ccc(OCCN2[C@H](C)CCC[C@@H]2C)cc1"
  log10(Ki): 2.58
- STRUCTURE STRING: "COc1ccc(OCCN2CCCC[C@@H]2C)cc1"
  log10(Ki): 1.64
- STRUCTURE STRING: "C[C@H]1CCCCN1CCOc1ccc(Cl)cc1"
  log10(Ki): 1.22
- STRUCTURE STRING: "CC1CCN([C@H](C)COc2ccc(Cl)cc2)CC1"
  log10(Ki): 0.07

I have 3 molecules here; please give me log10(Ki) for each one.
1. COc1ccc(OCCN2CCCC[C@H]2C)cc1
2. C[C@@H]1CCC[C@H](C)N1CCOc1ccc(Cl)cc1
3. C[C@@H]1CCC[C@H](C)N1CCCOc1ccc(Cl)cc1

Result:
1.56
1.77
0.65

Please state, for each entry, its recorded log10(Ki).
1. COc1ccc(OCCCN2[C@H](C)CCC[C@@H]2C)cc1
2. COc1ccc(OC[C@H](C)N2CCC(C)CC2)cc1
3. C[C@@H]1CCCCN1CCOc1ccc(Cl)cc1

Result:
1.37
0.17
1.31

Please state log10(Ki) for every molecule in the list that follows.
1. COc1ccc(OCCN2CCC(C)CC2)cc1
2. CC1CCN([C@@H](C)COc2ccc(Cl)cc2)CC1

Result:
-0.05
-0.47

The values you see were collected from ChEMBL document CHEMBL5046239.
